The reported measurements were obtained from patent US20060252807A1.

- targetOfAssay: active p38 alpha enzyme (Upstate Biotechnology) (Homo sapiens)
- Construct: purchased Upstate Biotechnology
- Sequence (Q16539 whole entry): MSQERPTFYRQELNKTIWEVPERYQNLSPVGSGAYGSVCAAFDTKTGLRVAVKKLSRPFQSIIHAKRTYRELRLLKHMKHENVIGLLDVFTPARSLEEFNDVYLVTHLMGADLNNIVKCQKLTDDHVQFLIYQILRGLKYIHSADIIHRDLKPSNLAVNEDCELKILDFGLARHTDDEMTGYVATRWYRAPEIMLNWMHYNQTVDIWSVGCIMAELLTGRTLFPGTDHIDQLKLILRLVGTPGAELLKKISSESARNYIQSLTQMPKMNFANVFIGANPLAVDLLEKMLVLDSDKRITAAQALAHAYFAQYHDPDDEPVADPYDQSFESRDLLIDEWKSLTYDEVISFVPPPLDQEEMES
- assayName: p38α biochemical assay (ATP turnover, luminescent detection, Cambrex PKlight)
- settings: p38α kinase; Table 1 Biological Activity
pIC50: −log10 of the molar value.
observationType: pIC50

compound="Cc1ccccc1OCC(=O)N1CCC(c2[nH]nc(-c3ccc(F)cc3)c2-c2nc(C(=O)NC(C)C)cs2)CC1 [Example 894]" targetofassay="active p38 alpha enzyme (Upstate Biotechnology) (Homo sapiens)" observationtype=pIC50 reportedresult="< 6.00"
compound="CN1CCN(NC(=O)c2csc(-c3c(-c4ccc(F)cc4)n[nH]c3C3CCNCC3)n2)CC1 [Example 2071]" targetofassay="active p38 alpha enzyme (Upstate Biotechnology) (Homo sapiens)" observationtype=pIC50 reportedresult="< 6.00"
compound="CC(C)NC(=O)C1=CSC(c2c(-c3ccc(F)cc3)noc2CN2CCN(c3ccc(F)cc3)CC2)=NC1 [Example 1580]" targetofassay="active p38 alpha enzyme (Upstate Biotechnology) (Homo sapiens)" observationtype=pIC50 reportedresult="< 6.00"
compound="COCCNCc1onc(-c2ccc(F)cc2)c1-c1nc(C(=O)NC(C)C)cs1 [Example 1377]" targetofassay="active p38 alpha enzyme (Upstate Biotechnology) (Homo sapiens)" observationtype=pIC50 reportedresult="< 6.00"
compound="Cc1nc(-c2ccc(F)cc2)c(-c2nc(C(=O)NC(C)C)cs2)[nH]1 [Example 2158]" targetofassay="active p38 alpha enzyme (Upstate Biotechnology) (Homo sapiens)" observationtype=pIC50 reportedresult="≥ 6.00"
compound="Cc1nc(-c2ccc(F)cc2)c(-c2nc(C(=O)Nc3ccc(C(F)(F)F)cc3C(F)(F)F)cs2)s1 [Example 2024]" targetofassay="active p38 alpha enzyme (Upstate Biotechnology) (Homo sapiens)" observationtype=pIC50 reportedresult="≥ 6.00"
compound="C=CCN(Cc1onc(-c2ccc(F)cc2)c1-c1nc(C(=O)NC(C)C)cs1)C1CCCCC1 [Example 1556]" targetofassay="active p38 alpha enzyme (Upstate Biotechnology) (Homo sapiens)" observationtype=pIC50 reportedresult="< 6.00"
compound="Cc1nc(-c2ccc(F)cc2)c(-c2nc(C(=O)NCCc3ccc(S(N)(=O)=O)cc3)cs2)s1 [Example 1828]" targetofassay="active p38 alpha enzyme (Upstate Biotechnology) (Homo sapiens)" observationtype=pIC50 reportedresult="≥ 6.00"
compound="CC(C)NC(=O)c1csc(-c2c(-c3ccc(F)cc3)noc2CNCCCN2CCCC2=O)n1 [Example 1464]" targetofassay="active p38 alpha enzyme (Upstate Biotechnology) (Homo sapiens)" observationtype=pIC50 reportedresult="≥ 6.00"
compound="Cc1ccc(S(=O)(=O)NCCNCc2nc(-c3ccc(F)cc3)c(-c3nc(C(=O)NC(C)C)cs3)o2)cc1 [Example 1180]" targetofassay="active p38 alpha enzyme (Upstate Biotechnology) (Homo sapiens)" observationtype=pIC50 reportedresult="≥ 6.00"
compound="COc1ccccc1CCNCc1nc(-c2ccc(F)cc2)c(-c2nc(C(=O)NC(C)C)cs2)o1 [Example 1146]" targetofassay="active p38 alpha enzyme (Upstate Biotechnology) (Homo sapiens)" observationtype=pIC50 reportedresult="< 6.00"
compound="O=C(NCCc1cccc(F)c1)c1csc(-c2c(-c3ccc(F)cc3)n[nH]c2C2CCNCC2)n1 [Example 2106]" targetofassay="active p38 alpha enzyme (Upstate Biotechnology) (Homo sapiens)" observationtype=pIC50 reportedresult="< 6.00"
compound="Cc1nc(-c2ccc(F)cc2)c(-c2nc(C(=O)N3CC(C)CC(C)C3)cs2)s1 (centres unmarked) [Example 1856]" targetofassay="active p38 alpha enzyme (Upstate Biotechnology) (Homo sapiens)" observationtype=pIC50 reportedresult="< 6.00"
compound="CC(C)NC(=O)c1csc(-c2oc(CN3CCN(c4ccc(C(F)(F)F)cc4)CC3)nc2-c2ccc(F)cc2)n1 [Example 1296]" targetofassay="active p38 alpha enzyme (Upstate Biotechnology) (Homo sapiens)" observationtype=pIC50 reportedresult="< 6.00"
